target: Nav 1.7 (Homo sapiens (Human)); test: Nav 1.7 IWQ in vitro assay (IonWorks Quattro population patch-clamp); assay type: cell-based; details: 293 cells stably transfected with Nav 1.7; second part of table; read-out: Nav1.7 IWQ IC50 IP
Sequence (Q15858 whole entry): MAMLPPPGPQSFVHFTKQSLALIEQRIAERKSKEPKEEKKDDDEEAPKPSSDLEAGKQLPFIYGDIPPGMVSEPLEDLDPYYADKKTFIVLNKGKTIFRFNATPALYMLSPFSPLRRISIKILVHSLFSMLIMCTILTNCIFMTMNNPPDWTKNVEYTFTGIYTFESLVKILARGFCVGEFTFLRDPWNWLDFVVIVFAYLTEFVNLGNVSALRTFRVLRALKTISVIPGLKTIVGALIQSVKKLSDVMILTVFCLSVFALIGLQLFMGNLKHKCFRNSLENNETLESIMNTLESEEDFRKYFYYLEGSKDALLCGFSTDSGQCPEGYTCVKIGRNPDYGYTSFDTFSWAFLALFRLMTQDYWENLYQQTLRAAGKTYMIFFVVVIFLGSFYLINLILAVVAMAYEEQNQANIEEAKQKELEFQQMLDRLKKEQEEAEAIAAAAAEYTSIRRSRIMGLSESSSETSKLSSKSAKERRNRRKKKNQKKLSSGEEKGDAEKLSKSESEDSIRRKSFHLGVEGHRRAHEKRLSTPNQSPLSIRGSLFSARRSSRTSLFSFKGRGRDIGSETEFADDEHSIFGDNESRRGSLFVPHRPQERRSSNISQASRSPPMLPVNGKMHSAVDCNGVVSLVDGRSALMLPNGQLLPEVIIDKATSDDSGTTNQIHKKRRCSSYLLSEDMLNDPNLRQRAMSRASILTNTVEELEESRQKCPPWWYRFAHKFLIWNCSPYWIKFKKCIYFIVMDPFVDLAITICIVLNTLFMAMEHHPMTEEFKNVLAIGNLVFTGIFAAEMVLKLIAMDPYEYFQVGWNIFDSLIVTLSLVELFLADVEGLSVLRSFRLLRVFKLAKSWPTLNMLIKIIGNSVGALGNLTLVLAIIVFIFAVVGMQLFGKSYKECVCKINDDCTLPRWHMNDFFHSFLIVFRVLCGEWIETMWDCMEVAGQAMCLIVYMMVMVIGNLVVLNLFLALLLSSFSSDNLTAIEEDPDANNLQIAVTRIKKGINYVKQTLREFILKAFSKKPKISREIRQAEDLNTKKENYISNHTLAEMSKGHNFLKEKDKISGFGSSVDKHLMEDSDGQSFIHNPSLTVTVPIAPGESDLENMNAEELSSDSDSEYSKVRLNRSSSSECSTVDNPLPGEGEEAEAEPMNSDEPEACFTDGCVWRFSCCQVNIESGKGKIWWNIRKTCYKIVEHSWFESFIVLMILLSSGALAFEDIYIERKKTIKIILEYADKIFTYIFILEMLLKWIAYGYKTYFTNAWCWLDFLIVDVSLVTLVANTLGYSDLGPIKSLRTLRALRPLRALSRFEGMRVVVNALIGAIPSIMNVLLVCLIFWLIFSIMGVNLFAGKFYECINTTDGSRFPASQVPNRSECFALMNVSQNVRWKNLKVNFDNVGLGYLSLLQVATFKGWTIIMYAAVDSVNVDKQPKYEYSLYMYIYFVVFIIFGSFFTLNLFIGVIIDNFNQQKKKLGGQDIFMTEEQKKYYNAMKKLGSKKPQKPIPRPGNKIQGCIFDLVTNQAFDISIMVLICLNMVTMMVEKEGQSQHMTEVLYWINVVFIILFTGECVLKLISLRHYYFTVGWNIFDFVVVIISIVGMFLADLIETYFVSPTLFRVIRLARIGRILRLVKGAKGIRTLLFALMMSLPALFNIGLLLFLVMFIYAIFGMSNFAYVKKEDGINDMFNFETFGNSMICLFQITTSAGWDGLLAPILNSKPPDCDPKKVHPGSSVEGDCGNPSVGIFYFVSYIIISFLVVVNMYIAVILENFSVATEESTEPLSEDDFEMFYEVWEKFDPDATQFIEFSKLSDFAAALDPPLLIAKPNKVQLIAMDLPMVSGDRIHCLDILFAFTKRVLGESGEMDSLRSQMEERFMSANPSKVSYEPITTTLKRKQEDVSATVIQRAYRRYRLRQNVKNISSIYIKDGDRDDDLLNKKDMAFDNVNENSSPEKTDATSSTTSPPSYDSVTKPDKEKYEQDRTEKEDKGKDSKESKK

{"molecule": "Cn1ncc2cccc(-c3nccc4cc(S(=O)(=O)Nc5ccncn5)ccc34)c21 [Example 306]", "scaleUnit": "nM", "relationSymbol": ">", "IC50": 10000}
{"molecule": "COc1cc(C(F)F)ccc1-c1ncnc2cc(S(=O)(=O)Nc3nccs3)ccc12 [Example 266]", "scaleUnit": "nM", "relationSymbol": "=", "IC50": 10}
{"molecule": "COc1cc(C(F)(F)F)ccc1-c1nncc2cc(S(=O)(=O)Nc3ccncn3)ccc12 [Example 254]", "scaleUnit": "nM", "relationSymbol": "=", "IC50": 260}
{"molecule": "COc1cc(Cl)ccc1-c1nccc2cc(S(=O)(=O)Nc3ccncn3)ccc12 [Example 160]", "scaleUnit": "nM", "relationSymbol": "=", "IC50": 20}
{"molecule": "O=S(=O)(Nc1ncns1)c1ccc2c(N3CCCC3c3ccncc3)cccc2c1 (centres unmarked) [Example 88]", "scaleUnit": "nM", "relationSymbol": "=", "IC50": 20}
